Assay Explanation: Spectroscopic measurements (absorption, emission, quantum yield, extinction coefficient)
Format: physicochemical
Condition Details: BDNCA library, difference emission minus absorption
Recorded Flu-Abs by entry
Property: Flu-Abs

In [3]: df
Out[3]:
                                   compound  quantitative_result
0  CC1=CC(/C=C/c2ccc(C#N)cc2)=[N+]2C1=C(c1ccc(NC(=O)CCl)cc1)c1cccn1[B-]2(F)F [BDNCA-15]                   18
1  CC1=CC(/C=C/c2cccc(Oc3ccccc3)c2)=[N+]2C1=C(c1ccc(NC(=O)CCl)cc1)c1cccn1[B-]2(F)F [BDNCA-20]                   20
2  COc1cc(/C=C/C2=[N+]3C(=C(c4ccc(NC(=O)CCl)cc4)c4cccn4[B-]3(F)F)C(C)=C2)cc(OC)c1 [BDNCA-209]                   20
3  CCCCCCOc1ccc(/C=C/C2=[N+]3C(=C(c4ccc(NC(=O)CCl)cc4)c4cccn4[B-]3(F)F)C(C)=C2)cc1 [BDNCA-45]                   32

---

Assay Explanation: Spectroscopic measurements (absorption, emission, quantum yield, extinction coefficient)
Assay type: physicochemical
Condition Details: BDNCA library, absorption
Examples of molecules with documented Abs follow.
Property: Abs (nm)

                                given_smiles  quantitative_result
 0  CC1=CC(/C=C/c2ccc(Cl)c(Cl)c2)=[N+]2C1=C(c1ccc(NC(=O)CCl)cc1)c1cccn1[B-]2(F)F                  557
 1  CC1=CC(/C=C/c2ccc(-n3ccnc3)cc2)=[N+]2C1=C(c1ccc(NC(=O)CCl)cc1)c1cccn1[B-]2(F)F                  562
 2  COc1cc2ccccc2c(/C=C/C2=[N+]3C(=C(c4ccc(NC(=O)CCl)cc4)c4cccn4[B-]3(F)F)C(C)=C2)c1OC                  567
 3  Cc1cc(/C=C/c2ccccc2OC(F)F)n2c1C(c1ccc(NC(=O)CCl)cc1)=C1C=CC=[N+]1[B-]2(F)F                  554
 4  CCN(CC)c1ccc(/C=C/C2=[N+]3C(=C(c4ccc(NC(=O)CCl)cc4)c4cccn4[B-]3(F)F)C(C)=C2)cc1                  624
 5  CC1=CC(/C=C/c2ccc(C(C)(C)C)cc2)=[N+]2C1=C(c1ccc(NC(=O)CCl)cc1)c1cccn1[B-]2(F)F                  558
 6  COc1cccc(Oc2ccccc2/C=C/C2=[N+]3C(=C(c4ccc(NC(=O)CCl)cc4)c4cccn4[B-]3(F)F)C(C)=C2)c1                  558
 7  COc1cc(Cl)cc(/C=C/C2=[N+]3C(=C(c4ccc(NC(=O)CCl)cc4)c4cccn4[B-]3(F)F)C(C)=C2)c1O                  563
 8  CC1=CC(/C=C/c2ccc(C)c(Cl)c2)=[N+]2C1=C(c1ccc(NC(=O)CCl)cc1)c1cccn1[B-]2(F)F                  560
 9  CC1=CC(/C=C/c2cccc(O)c2Cl)=[N+]2C1=C(c1ccc(NC(=O)CCl)cc1)c1cccn1[B-]2(F)F                  556
10  Cc1cc(/C=C/c2ccc(Oc3ccc(Cl)cc3)cc2)n2c1C(c1ccc(NC(=O)CCl)cc1)=C1C=CC=[N+]1[B-]2(F)F                  561
11  COc1cc(/C=C/C2=[N+]3C(=C(c4ccc(NC(=O)CCl)cc4)c4cccn4[B-]3(F)F)C(C)=C2)cc(OC)c1OC(C)=O                  555
12  COc1cccc(/C=C/C2=[N+]3C(=C(c4ccc(NC(=O)CCl)cc4)c4cccn4[B-]3(F)F)C(C)=C2)c1                  556
13  CC1=CC(/C=C/c2csc3ccccc23)=[N+]2C1=C(c1ccc(NC(=O)CCl)cc1)c1cccn1[B-]2(F)F                  567
